# IC50 per entry
Measured on: TBK1 (Homo sapiens)
Sequence (Q9UHD2 whole entry, species assumed): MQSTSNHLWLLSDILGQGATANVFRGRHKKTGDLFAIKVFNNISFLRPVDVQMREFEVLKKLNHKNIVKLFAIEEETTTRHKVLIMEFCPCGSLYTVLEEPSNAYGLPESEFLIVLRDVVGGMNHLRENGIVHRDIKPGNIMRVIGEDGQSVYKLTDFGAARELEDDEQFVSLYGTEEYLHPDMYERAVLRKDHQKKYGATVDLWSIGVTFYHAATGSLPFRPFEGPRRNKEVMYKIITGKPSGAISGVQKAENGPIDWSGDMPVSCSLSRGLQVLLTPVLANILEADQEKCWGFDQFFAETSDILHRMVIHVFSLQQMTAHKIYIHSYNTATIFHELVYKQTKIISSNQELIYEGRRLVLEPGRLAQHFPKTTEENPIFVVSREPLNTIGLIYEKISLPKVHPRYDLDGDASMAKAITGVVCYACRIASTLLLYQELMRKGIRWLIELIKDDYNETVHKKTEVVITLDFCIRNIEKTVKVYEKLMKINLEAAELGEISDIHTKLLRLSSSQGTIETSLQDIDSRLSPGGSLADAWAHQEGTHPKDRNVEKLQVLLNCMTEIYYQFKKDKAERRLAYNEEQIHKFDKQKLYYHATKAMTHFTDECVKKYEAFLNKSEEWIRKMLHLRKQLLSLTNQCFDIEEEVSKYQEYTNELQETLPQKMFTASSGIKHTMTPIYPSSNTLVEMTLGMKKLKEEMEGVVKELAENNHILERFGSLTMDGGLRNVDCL
Protocol notes: TBK Biochemical Assay
Cond: read-out: TBK1 IC50
Quantity measured: IC50

>>> measured_value("COc1cc(C(=O)N2CC3CN(C)CC3C2)ccc1-c1cc2nccc(-c3ccc(NC4CCOCC4)c(C#N)c3)c2o1 (centres unmarked) [Compound 73]")
"< 100 nM"
>>> measured_value("COc1cc(C(=O)N(C)C)ccc1-c1cc2nccc(-c3ccc(NC4CCOCC4)c(C#N)c3)c2o1 [Compound 226]")
"< 100 nM"
>>> measured_value("N#Cc1cc(-c2ccnc3cc(-c4ccc(C(=O)O)cc4)oc23)ccc1Oc1ccncc1 [Compound 192]")
"> 5000 nM"
>>> measured_value("COc1cc(C(=O)N[C@@]23C[C@@H]2CN(C(C)C)C3)ccc1-c1cc2nccc(-c3ccc(OC4CCOCC4)c(C#N)c3)c2o1 [Compound 372]")
"< 100 nM"
>>> measured_value("COc1cc(C(=O)N2CC3CCC(O)C3C2)ccc1-c1cc2nccc(-c3ccc(NC4CCOCC4)c(C#N)c3)c2o1 (centres unmarked) [Compound 96]")
"< 100 nM"
>>> measured_value("COc1cc(C(=O)O)ccc1-c1cc2nccc(-c3ccc(NC4CCOCC4)c(C#N)c3)c2o1 [Compound 88]")
"< 100 nM"
>>> measured_value("COc1cc(C(=O)N2CC[C@@H](O)C2)ccc1-c1cc2nccc(-c3ccc(OC4CCOCC4)c(C#N)c3)c2o1 [Compound 43]")
"< 100 nM"
>>> measured_value("CC1CC(Oc2ccc(-c3ccnc4cc(-c5ccc(C(=O)O)cc5)oc34)cc2C#N)CC(C)O1 (centres unmarked) [Compound 189]")
"> 5000 nM"
>>> measured_value("COc1cc(C(=O)N[C@@H]2CCN(C)C2)ccc1-c1cc2nccc(-c3ccc(OC4CCOCC4)c(C#N)c3)c2o1 [Compound 494]")
"< 100 nM"
>>> measured_value("COc1cc(C(=O)N2CC[C@@H](N(C)C)C2)ncc1-c1cc2nccc(-c3ccc(N4CCC(F)C4)c(C#N)c3)c2o1 (some centres unmarked) [Compound 457]")
"< 100 nM"
>>> measured_value("COc1cc(C(=O)N(C)C)cnc1-c1cc2ncc(C3CC3)c(-c3ccc(NC4CCOCC4)c(C#N)c3)c2o1 [Compound 522]")
"> 5000 nM"
>>> measured_value("N#Cc1cc(-c2ccnc3cc(-c4cnn(C5COC5)c4)oc23)ccc1OC1CCOCC1 [Compound 138]")
"< 100 nM"
>>> measured_value("COc1cc(C(=O)N(C)C)ccc1-c1cc2nccc(-c3ccc(OC4CCN(C)CC4(F)F)c(C#N)c3)c2o1 (centres unmarked) [Compound 97]")
"< 100 nM"
>>> measured_value("COc1cc(C(=O)N2CCCCC2)ncc1-c1cc2nccc(-c3ccc(N4CC[C@@H](F)C4)c(C#N)c3)c2o1 (stereo in doubt) [Compound 385]")
"< 100 nM"
